tested on: PfAP2-HC AP2 domain (GST-tagged); assay: gcPBM binding intensity (ln(normalized median fluorescence intensity)); higher = stronger DNA binding
Over roughly 25,000 sequences, “ln(normalized median fluorescence intensity)” has its median near 9.7; the highest 2% begin near 11. For the sample, the highest values were picked, then their nearest neighbours and some sequences at random.
Measured gcPBM binding intensity (ln), listed per entry.
reported.endpoint: gcPBM binding intensity (ln)

{"query.sequence": "TATAGAAGCGTTCACACACACACATACATACCCATA [CACACA_site4915]", "reported.endpoint": "gcPBM binding intensity (ln)", "experimental.value": 11.1}
{"query.sequence": "ATTATATATATCAGGTGTACGTAAAAAAAATGGACG [XGTACX_site1028]", "reported.endpoint": "gcPBM binding intensity (ln)", "experimental.value": 9.88}
{"query.sequence": "GTTATAGAAGCATTCACACACACACCCACATACACA [CACACA_site1465]", "reported.endpoint": "gcPBM binding intensity (ln)", "experimental.value": 11.2}
{"query.sequence": "TACATGTATAAATAAGCACACATGTGGATATGTACA [CACACA_site93]", "reported.endpoint": "gcPBM binding intensity (ln)", "experimental.value": 10}
{"query.sequence": "TTGTTATAGAAGCATTCACACACACCCATACATACA [CACACA_site8414]", "reported.endpoint": "gcPBM binding intensity (ln)", "experimental.value": 10.8}
{"query.sequence": "TGAAAATGGGAACCGTGTACAGGGCAGTTATAGGGG [XGTACX_site2950]", "reported.endpoint": "gcPBM binding intensity (ln)", "experimental.value": 9.87}
{"query.sequence": "GTTATAGAAGCATTCACACACACACCGACATACACA [CACACA_site4914]", "reported.endpoint": "gcPBM binding intensity (ln)", "experimental.value": 10.3}
{"query.sequence": "AAGGAAATATAATATACACACATAAGTGTACTTCTA [CACACA_site6079]", "reported.endpoint": "gcPBM binding intensity (ln)", "experimental.value": 9.81}
{"query.sequence": "TTTTACTAAATATATACACACATTATACAGATATAT [CACACA_site5765]", "reported.endpoint": "gcPBM binding intensity (ln)", "experimental.value": 9.86}

###

tested on: PfAP2-HC AP2 domain (GST-tagged); test: gcPBM binding intensity (ln(normalized median fluorescence intensity)); higher = stronger DNA binding
Over roughly 25,000 sequences, “ln(normalized median fluorescence intensity)” has its median near 9.7; the highest 2% begin near 11. This is one part of a sample in which the highest values are shown more often than they occur.
reported.endpoint: gcPBM binding intensity (ln)

{"query.sequence": "GGACAACAAACAAACACACACAAAAAAAAAATAAAA [CACACA_site3791]", "reported.endpoint": "gcPBM binding intensity (ln)", "experimental.value": 11}
{"query.sequence": "TCAATAATAAAAAACACACACAAAAAAAAATAATTA [CACACA_site2798]", "reported.endpoint": "gcPBM binding intensity (ln)", "experimental.value": 10.2}
{"query.sequence": "ATAAATAAAAACACAAAACAAAACAAAACAAAACAA [CACACA_negctrl_site1257]", "reported.endpoint": "gcPBM binding intensity (ln)", "experimental.value": 9.61}
{"query.sequence": "AAGGACAACAAACAAACACACACAAAAAAAAAATAA [CACACA_site9263]", "reported.endpoint": "gcPBM binding intensity (ln)", "experimental.value": 10.2}
{"query.sequence": "AAAACAAATAGACACGCACACAAAAAAAAAAAAAAA [CACACA_site801]", "reported.endpoint": "gcPBM binding intensity (ln)", "experimental.value": 10.3}
{"query.sequence": "GTAAAAAAATAGCACACACACAAAAACACGCACAAA [CACACA_site6723]", "reported.endpoint": "gcPBM binding intensity (ln)", "experimental.value": 11.4}
{"query.sequence": "CAAAAAAAATAAAACACACACACAAAAAAATAAAAA [CACACA_site466]", "reported.endpoint": "gcPBM binding intensity (ln)", "experimental.value": 10.7}
{"query.sequence": "AAGTAAAAAAATAGCACACACACAAAAACACAGACA [CACACA_site4839]", "reported.endpoint": "gcPBM binding intensity (ln)", "experimental.value": 10.7}
{"query.sequence": "ACAAATAAATAAAAAACACACACAAATAAATAAATA [CACACA_site8708]", "reported.endpoint": "gcPBM binding intensity (ln)", "experimental.value": 10.6}

Value source: the supplement of paper PMC11417369
